Test: logP determination by HPLC on a reversed-phase column (C18), EEC Directive 79/831 Annex V.A8
Assay type: physicochemical
Conditions: HPLC on reversed-phase column (C18), acetonitrile/water with formic acid, EEC Directive 79/831 Annex V.A8
Catalogue of logP values
measurementType: logP

# molecule, value
records = [
    ("Cn1nc(C(F)(F)C(F)(F)F)c(C(F)(F)F)c1-n1cc(-c2ccc(Cl)c(C(=O)NC3CCC3S(C)(=O)=O)c2)cn1 (stereo not drawn)", 3.47),
    ("CON=Cc1c(C(F)(F)F)nn(C)c1-n1cc(-c2ccc(Cl)c(C(=O)NC3CC3)c2)cn1 (mixture of isomers)", 3.15),
    ("N#CC1(NC(=O)c2cc(-c3cnn(-c4c(C(F)(F)F)c(C(F)(F)C(F)(F)F)nn4-c4ncccc4Cl)c3)ccc2Cl)CC1", 4.15),
    ("Cn1nc(C(F)(F)F)c(C(F)(F)F)c1-n1cc(-c2ccc(Cl)c(C(=O)Nc3ccccc3)c2)cn1", 4.1),
    ("C#CC(C)NC(=O)c1cc(-c2cnn(-c3c(C(F)(F)F)c(C(F)(F)C(F)(F)F)nn3C)c2)ccc1Cl (stereo not drawn)", 3.97),
    ("Cn1nc(C(F)(F)C(F)(F)F)c(C(F)(F)F)c1-n1cc(-c2ccc([N+](=O)[O-])c(C(=O)NC3CC3)c2)cn1", 3.53),
]

---

Test: logP determination by HPLC on a reversed-phase column (C18), EEC Directive 79/831 Annex V.A8
Format: physicochemical
Settings: HPLC on reversed-phase column (C18), acetonitrile/water with formic acid, EEC Directive 79/831 Annex V.A8
Experimental: ^a) Note regarding the determination of the logP values and mass detection: The determination of the given logP values was carried out in accordance with EEC Directive 79/831 Annex V.A8 by HPLC (High Performance Liquid Chromatography) on a reversed-phase column (C18). […]
Please map values of logP to classes as shown: bottom (below 3), middle (3 to below 4), top (4 or more)

# compound, cat
measured = [
    ("CSC1CC(NC(=O)c2cc(-c3cnn(-c4c(C(F)(F)F)c(C(F)(F)C(F)(F)F)nn4C)c3)ccc2Cl)C1 (centres unmarked) [Ic-108]", "top"),
    ("Cn1nc(C(F)(F)C(F)(F)F)c(C(F)(F)F)c1-n1cc(-c2ccc(Cl)c(C(=O)NC3(C4CCC4)CC3)c2)cn1 [Ic-210]", "top"),
    ("C#CCNC(=O)c1cc(-c2cnn(-c3c(C(F)(F)F)c(C(F)(F)C(F)(F)F)nn3C)c2)ccc1Cl [Ic-109]", "middle"),
    ("Cn1nc(C(F)(F)C(F)(F)F)c(C(F)(F)F)c1-n1cc(-c2ccc(F)c(C(=O)NC3(C#N)CC3)c2)cn1 [Ic-36]", "middle"),
    ("CCCN(C(=O)c1cc(-c2cnn(-c3c(C(F)(F)F)c(C(F)(F)C(F)(F)F)nn3C)c2)ccc1Cl)C1(C#N)CC1 [Ic-204]", "top"),
    ("CSc1c(C(F)(F)C(F)(F)F)nn(C)c1-n1cc(-c2ccc(Cl)c(C(=O)NC3(C#N)CC3)c2)cn1 [Ic-194]", "middle"),
    ("Cn1nc(C(F)(F)C(F)(F)F)c(C(F)(F)F)c1-n1cc(-c2ccc(Cl)c(C(=O)NC3(C#N)CC3)c2)c(N)n1 [Ic-191]", "middle"),
    ("Cn1nc(C(F)(F)C(F)(F)F)c(C(F)(F)F)c1-n1cc(-c2ccc(Cl)c(C(=O)Nc3ccncc3)c2)cn1 [Ic-22]", "bottom"),
    ("Cn1nc(C(F)(F)C(F)(F)F)c(C(F)(F)F)c1-n1cc(-c2ccc(Cl)c(C(=O)NC3(C4CC4)CC3)c2)cn1 [Ic-188]", "top"),
    ("Cn1nc(C(F)(F)F)c(C(F)(F)F)c1-n1cc(-c2ccc(Cl)c(C(=O)NC3CC3F)c2)cn1 (centres unmarked) [Ic-177]", "middle"),
    ("Cn1nc(C(F)(F)F)c(CO)c1-n1cc(-c2ccc(Cl)c(C(=O)NC3(C#N)CC3)c2)cn1 [Ic-104]", "bottom"),
    ("N#CC1(NC(=O)c2cc(-c3cnn(-c4c(C(F)(F)F)c(C(F)(F)C(F)(F)F)nn4-c4ccccc4)c3)ccc2Cl)CC1 [Ic-7]", "top"),
    ("Cn1nc(C(F)(F)C(F)(F)F)c(C(F)(F)F)c1-n1cc(-c2ccc(F)c(C(=O)NC3CC3)c2)cn1 [Ic-37]", "middle"),
]

---

Tested on: adult cat fleas (Ctenocephalides felis)
Assay: Ctenocephalides felis in vitro contact test with adult cat fleas (T1)
Conditions: application rate 1 μg/cm^2; after 48 h
Catalogue of efficacy (dead or moribund fleas) values
measurementType: efficacy (dead or moribund fleas)

# substanceSmiles, measurementType, value
measured = [
    ("Cn1nc(C(F)(F)C(F)(F)F)c(C(F)(F)F)c1-n1cc(-c2cncc(C(=O)NC3(C#N)CC3)c2)cn1", "efficacy (dead or moribund fleas)", "100%"),
    ("Cn1nc(C(F)(F)C(F)(F)F)c(C(F)(F)F)c1-n1cc(-c2ccc(Cl)c(C(=O)NC3CC3)c2)cn1", "efficacy (dead or moribund fleas)", "100%"),
    ("Cn1nc(C(F)(F)C(F)(F)F)c(C(F)(F)F)c1-n1cc(-c2ccc(Cl)c(C(=O)Nc3ccon3)c2)cn1", "efficacy (dead or moribund fleas)", "100%"),
    ("Cn1nc(C(F)(F)C(F)(F)F)c(C(F)(F)F)c1-n1cc(-c2ccc(Cl)c(C(=O)Nc3ccccn3)c2)cn1", "efficacy (dead or moribund fleas)", "100%"),
    ("Cn1nc(C(F)(F)C(F)(F)F)c(C(F)(F)F)c1-n1cc(-c2ccc(Cl)c(C(=O)N[C@@H]3CCOC3)c2)cn1", "efficacy (dead or moribund fleas)", "100%"),
    ("Cc1ncc(-c2cnn(-c3c(C(F)(F)F)c(C(F)(F)C(F)(F)F)nn3C)c2)cc1C(=O)NC1(C#N)CC1", "efficacy (dead or moribund fleas)", "100%"),
    ("CONC(=O)c1cc(-c2cnn(-c3c(C(F)(F)F)c(C(F)(F)C(F)(F)F)nn3C)c2)ccc1Cl", "efficacy (dead or moribund fleas)", "100%"),
    ("CNC(=O)C1(N(C)C(=O)c2cc(-c3cnn(-c4c(C(F)(F)F)c(C(F)(F)C(F)(F)F)nn4C)c3)ccc2Cl)CC1", "efficacy (dead or moribund fleas)", "100%"),
    ("CCN(C(=O)c1cc(-c2cnn(-c3c(C(F)(F)F)c(C(F)(F)C(F)(F)F)nn3C)c2)ccc1Cl)C1CC1", "efficacy (dead or moribund fleas)", "100%"),
    ("Cc1ncc(-c2cnn(-c3c(C(F)(F)F)c(C(F)(F)C(F)(F)F)nn3C)c2)cc1C(=O)NC1CC1", "efficacy (dead or moribund fleas)", "100%"),
    ("Cn1nc(C(F)(F)C(F)(F)F)c(C(F)(F)F)c1-n1cc(-c2ccc(Cl)c(C(=O)NC3CSC3)c2)cn1", "efficacy (dead or moribund fleas)", "100%"),
    ("CC(C)NC(=O)c1cc(-c2cnn(-c3c(C(F)(F)F)c(C(F)(F)C(F)(F)F)nn3C)c2)ccc1Cl", "efficacy (dead or moribund fleas)", "100%"),
    ("Cn1nc(C(F)(F)C(F)(F)F)c(C(F)(F)F)c1-n1cc(-c2cc(F)c(Cl)c(C(=O)NC3CC3)c2)cn1", "efficacy (dead or moribund fleas)", "100%"),
    ("COc1ncc(-c2cnn(-c3c(C(F)(F)F)c(C(F)(F)C(F)(F)F)nn3C)c2)cc1C(=O)NC1(C#N)CC1", "efficacy (dead or moribund fleas)", "100%"),
    ("Cn1nc(C(F)(F)C(F)(F)F)c(C(F)(F)F)c1-n1ccc(-c2ccc(Cl)c(C(=O)NC3(C#N)CC3)c2)c1", "efficacy (dead or moribund fleas)", "100%"),
    ("Cn1nc(C(F)(F)C(F)(F)F)c(C(F)(F)F)c1-n1cc(-c2ccc(Cl)c(C(=O)NCC(F)F)c2)cn1", "efficacy (dead or moribund fleas)", "100%"),
    ("Cc1nn(-c2c(C(F)(F)F)c(C(F)(F)C(F)(F)F)nn2C)cc1-c1ccc(Cl)c(C(=O)NC2CC2)c1", "efficacy (dead or moribund fleas)", "100%"),
    ("Cn1nc(C(F)(F)C(F)(F)F)c(C(F)(F)F)c1-n1cc(-c2cc(F)c(F)c(C(=O)NC3(C#N)CC3)c2)cn1", "efficacy (dead or moribund fleas)", "100%"),
    ("Cn1nc(C(F)(F)C(F)(F)F)c(C(F)(F)F)c1-n1cc(-c2cc(C(=O)NC3CC3)c(F)cc2Cl)cn1", "efficacy (dead or moribund fleas)", "100%"),
]
